EXPERIMENTAL_SYSTEM: HiBit-BRM fusion protein (Homo sapiens)
Construct: expressed in transfected cells
Sequence (P51531 whole entry, the tested form may be a part): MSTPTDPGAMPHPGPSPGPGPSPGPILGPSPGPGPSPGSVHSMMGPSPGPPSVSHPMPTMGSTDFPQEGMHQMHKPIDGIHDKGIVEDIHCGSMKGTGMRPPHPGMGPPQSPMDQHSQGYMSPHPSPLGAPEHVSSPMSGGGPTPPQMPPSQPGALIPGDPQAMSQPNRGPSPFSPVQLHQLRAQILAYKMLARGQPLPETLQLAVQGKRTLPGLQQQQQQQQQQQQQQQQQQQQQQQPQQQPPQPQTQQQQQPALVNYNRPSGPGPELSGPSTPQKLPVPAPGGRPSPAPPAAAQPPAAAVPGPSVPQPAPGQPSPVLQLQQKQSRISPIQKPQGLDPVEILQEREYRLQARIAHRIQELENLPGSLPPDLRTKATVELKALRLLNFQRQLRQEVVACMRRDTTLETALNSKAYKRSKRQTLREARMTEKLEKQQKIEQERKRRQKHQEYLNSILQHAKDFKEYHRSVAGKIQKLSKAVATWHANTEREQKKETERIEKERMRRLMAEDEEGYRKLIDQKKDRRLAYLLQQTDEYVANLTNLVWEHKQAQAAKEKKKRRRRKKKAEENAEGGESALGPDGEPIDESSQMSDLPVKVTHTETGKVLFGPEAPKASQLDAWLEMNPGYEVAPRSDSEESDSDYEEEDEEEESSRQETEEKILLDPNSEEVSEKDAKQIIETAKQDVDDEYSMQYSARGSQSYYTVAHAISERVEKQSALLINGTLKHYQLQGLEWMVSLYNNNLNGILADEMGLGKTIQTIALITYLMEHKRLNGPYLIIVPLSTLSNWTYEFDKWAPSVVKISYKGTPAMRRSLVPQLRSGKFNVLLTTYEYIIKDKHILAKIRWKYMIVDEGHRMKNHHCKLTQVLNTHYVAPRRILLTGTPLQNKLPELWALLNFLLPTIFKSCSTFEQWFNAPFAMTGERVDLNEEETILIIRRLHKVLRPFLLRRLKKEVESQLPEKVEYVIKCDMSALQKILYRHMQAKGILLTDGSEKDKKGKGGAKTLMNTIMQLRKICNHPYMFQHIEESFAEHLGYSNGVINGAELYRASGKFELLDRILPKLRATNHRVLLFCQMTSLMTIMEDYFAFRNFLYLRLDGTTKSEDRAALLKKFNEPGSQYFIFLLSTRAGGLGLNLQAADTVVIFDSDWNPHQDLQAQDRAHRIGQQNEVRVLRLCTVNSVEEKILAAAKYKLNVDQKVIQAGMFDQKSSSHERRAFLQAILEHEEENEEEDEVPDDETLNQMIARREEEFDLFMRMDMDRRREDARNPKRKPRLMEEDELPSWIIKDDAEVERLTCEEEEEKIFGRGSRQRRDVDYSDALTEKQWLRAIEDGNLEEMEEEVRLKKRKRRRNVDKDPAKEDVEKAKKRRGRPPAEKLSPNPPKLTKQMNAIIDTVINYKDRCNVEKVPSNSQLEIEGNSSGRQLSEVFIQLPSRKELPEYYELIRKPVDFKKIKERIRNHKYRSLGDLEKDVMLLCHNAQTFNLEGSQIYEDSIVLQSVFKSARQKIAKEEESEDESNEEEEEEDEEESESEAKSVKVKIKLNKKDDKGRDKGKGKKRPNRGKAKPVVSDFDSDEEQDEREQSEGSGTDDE
ASSAY_PROCEDURE: HiBiT-BRM cell-based degradation assay (Nano-Glo HiBiT Lytic Detection, 24 h)
ASSAY_CONDITIONS: HeLa cell line expressing HiBiT-BRM, read-out: BRM HiBit Degradation IC50
# DC50 listing for each entry below
METRIC_NAME: DC50

{"COMPOUND": "Cc1ncsc1-c1ccc([C@H](C)NC(=O)[C@@H]2C[C@@H](O)CN2C(=O)[C@@H](c2cc(OCCN3CC(CCc4cc5cc(-c6ccccc6O)nnc5[nH]4)C3)no2)C(C)C)cc1 (racemic)", "EXPERIMENTAL_SYSTEM": "HiBit-BRM fusion protein (Homo sapiens)", "METRIC_NAME": "DC50", "TEST_VALUE": "> 100 nM"}
{"COMPOUND": "Cc1ncsc1-c1ccc([C@H](C)NC(=O)C2C[C@@H](O)CN2C(=O)[C@@H](c2cc(OCCN3C[C@H]4C[C@@H](c5[nH]c6nnc(-c7ccccc7O)cc6c5C)C[C@H]4C3)no2)C(C)C)cc1 (single isomer, unassigned)", "EXPERIMENTAL_SYSTEM": "HiBit-BRM fusion protein (Homo sapiens)", "METRIC_NAME": "DC50", "TEST_VALUE": "< 10 nM"}
{"COMPOUND": "Cc1ncsc1-c1ccc([C@H](C)NC(=O)[C@@H]2C[C@@H](O)CN2C(=O)[C@@H](c2cc(C3CN(C(=O)[C@H]4CCc5[nH]c6nnc(-c7ccccc7O)cc6c5C4)C3)no2)C(C)C)cc1 (relative stereo)", "EXPERIMENTAL_SYSTEM": "HiBit-BRM fusion protein (Homo sapiens)", "METRIC_NAME": "DC50", "TEST_VALUE": "> 100 nM"}
{"COMPOUND": "Cc1ncsc1-c1ccc(CNC(=O)[C@@H]2C[C@@H](O)CN2C(=O)[C@@H](NC(=O)CCCC(=O)NC23CC(c4cc5cc(-c6ccccc6O)nnc5[nH]4)(C2)C3)C(C)(C)C)cc1 (racemic)", "EXPERIMENTAL_SYSTEM": "HiBit-BRM fusion protein (Homo sapiens)", "METRIC_NAME": "DC50", "TEST_VALUE": "> 1000 nM"}

----------
EXPERIMENTAL_SYSTEM: HiBit-BRG1 fusion protein (Homo sapiens)
Construct: expressed in transfected cells
Sequence (P51532 whole entry, the tested form may be a part): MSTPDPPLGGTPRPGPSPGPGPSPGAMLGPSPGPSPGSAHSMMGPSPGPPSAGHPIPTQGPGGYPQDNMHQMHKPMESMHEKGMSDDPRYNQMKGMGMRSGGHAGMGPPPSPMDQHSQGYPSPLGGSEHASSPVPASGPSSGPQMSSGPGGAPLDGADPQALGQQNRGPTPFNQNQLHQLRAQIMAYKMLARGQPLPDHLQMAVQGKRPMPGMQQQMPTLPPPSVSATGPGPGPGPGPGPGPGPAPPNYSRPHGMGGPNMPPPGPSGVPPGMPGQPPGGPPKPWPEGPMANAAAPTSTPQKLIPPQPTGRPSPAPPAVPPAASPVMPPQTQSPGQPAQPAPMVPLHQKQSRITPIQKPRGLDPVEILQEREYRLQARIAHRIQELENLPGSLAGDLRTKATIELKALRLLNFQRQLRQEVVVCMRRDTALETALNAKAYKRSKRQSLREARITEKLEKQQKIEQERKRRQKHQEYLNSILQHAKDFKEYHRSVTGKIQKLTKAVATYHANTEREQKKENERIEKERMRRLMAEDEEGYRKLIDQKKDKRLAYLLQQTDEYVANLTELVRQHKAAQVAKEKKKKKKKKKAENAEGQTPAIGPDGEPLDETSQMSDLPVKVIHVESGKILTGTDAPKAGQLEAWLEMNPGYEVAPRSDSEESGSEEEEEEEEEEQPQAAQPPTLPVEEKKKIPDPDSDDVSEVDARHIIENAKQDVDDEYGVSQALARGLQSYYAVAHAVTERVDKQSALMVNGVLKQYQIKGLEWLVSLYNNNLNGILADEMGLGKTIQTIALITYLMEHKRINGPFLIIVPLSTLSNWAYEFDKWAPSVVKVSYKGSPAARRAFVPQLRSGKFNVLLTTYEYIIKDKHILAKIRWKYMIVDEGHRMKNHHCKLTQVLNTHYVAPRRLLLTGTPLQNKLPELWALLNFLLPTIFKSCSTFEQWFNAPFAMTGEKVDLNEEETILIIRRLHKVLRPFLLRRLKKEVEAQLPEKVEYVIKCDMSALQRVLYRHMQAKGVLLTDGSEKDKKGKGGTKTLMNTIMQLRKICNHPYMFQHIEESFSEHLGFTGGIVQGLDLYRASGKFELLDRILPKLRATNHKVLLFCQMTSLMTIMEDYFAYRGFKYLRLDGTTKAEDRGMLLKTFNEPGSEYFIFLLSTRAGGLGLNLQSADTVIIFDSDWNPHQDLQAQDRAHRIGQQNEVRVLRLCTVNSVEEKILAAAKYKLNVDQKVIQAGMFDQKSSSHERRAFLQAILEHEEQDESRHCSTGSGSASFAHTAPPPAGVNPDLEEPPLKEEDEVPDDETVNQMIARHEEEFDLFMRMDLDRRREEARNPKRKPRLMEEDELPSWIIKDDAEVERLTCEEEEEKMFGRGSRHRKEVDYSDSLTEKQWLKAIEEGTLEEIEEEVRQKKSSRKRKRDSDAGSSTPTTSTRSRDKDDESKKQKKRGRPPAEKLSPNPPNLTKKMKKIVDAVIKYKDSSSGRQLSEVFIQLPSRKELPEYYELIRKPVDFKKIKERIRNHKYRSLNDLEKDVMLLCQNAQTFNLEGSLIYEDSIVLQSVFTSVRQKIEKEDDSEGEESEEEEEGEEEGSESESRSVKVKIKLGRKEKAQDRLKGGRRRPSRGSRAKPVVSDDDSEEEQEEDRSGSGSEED
ASSAY_PROCEDURE: HiBiT-BRG1 cell-based degradation assay (Nano-Glo HiBiT Lytic Detection, 24 h)
ASSAY_CONDITIONS: HeLa cell line expressing HiBit-BRG1 and LgBit, read-out: BRG1 HiBit Degradation Maximum (%)
# Dmax listing for each entry below
METRIC_NAME: Dmax

{"MOLECULE": "Cc1ncsc1-c1ccc([C@H](C)NC(=O)[C@@H]2C[C@@H](O)CN2C(=O)[C@@H](c2cc(OCCN3CC(C(C)(C)c4cc5cc(-c6ccccc6O)nnc5[nH]4)C3)no2)C(C)C)cc1 (racemic) [Compound 289]", "TEST_VALUE": "< 50%"}
{"MOLECULE": "CC(C)[C@H](C(=O)N1C[C@H](O)C[C@H]1C(=O)N[C@@H](C)c1ccc(-c2ccccc2F)cc1)c1cc(OCCN2CC(c3cc4cc(-c5ccccc5O)nnc4[nH]3)C2)no1 (single isomer, unassigned) [Compound 117]", "TEST_VALUE": "< 50%"}
{"MOLECULE": "Cc1ncsc1-c1ccc([C@H](C)NC(=O)[C@@H]2C[C@@H](O)CN2C(=O)[C@@H](c2cc(C3CCN(C(=O)CN4CC(c5cc6cc(-c7ccccc7O)nnc6[nH]5)C4)CC3)no2)C(C)C)cc1 (single isomer, unassigned) [Compound 179]", "TEST_VALUE": "< 50%"}
{"MOLECULE": "Cc1ncsc1-c1ccc([C@H](C)NC(=O)[C@@H]2C[C@@H](O)CN2C(=O)[C@H](c2cc(CN3CCc4[nH]c5nnc(-c6ccccc6O)cc5c4C3)no2)C(C)C)cc1 (single isomer, unassigned) [Compound 135]", "TEST_VALUE": "< 50%"}
